Target: MSI1 full-length (mouse, UniProt Q61474 1-362)
Sequence (Q61474 whole entry): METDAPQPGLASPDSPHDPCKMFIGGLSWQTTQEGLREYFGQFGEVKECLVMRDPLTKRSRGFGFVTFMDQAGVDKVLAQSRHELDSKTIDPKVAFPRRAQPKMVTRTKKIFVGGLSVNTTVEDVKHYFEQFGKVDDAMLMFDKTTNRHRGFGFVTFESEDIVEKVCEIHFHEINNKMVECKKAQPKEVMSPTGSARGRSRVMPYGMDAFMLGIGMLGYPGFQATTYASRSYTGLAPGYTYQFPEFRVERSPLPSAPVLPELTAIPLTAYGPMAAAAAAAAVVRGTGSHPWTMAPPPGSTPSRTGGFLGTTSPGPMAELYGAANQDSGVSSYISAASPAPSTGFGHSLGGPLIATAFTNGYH
Assay: nsRBNS (natural sequence RNA bind-n-seq); RBNS binding buffer (assumed for nsRBNS): 25 mM Tris pH 7.5, 150 mM KCl, 3 mM MgCl2, 0.01% Triton X-100, 500 ug/ml BSA, 20 U/ml SUPERase-In, 4 C; UNK is unkempt and MSI1 is Musashi-1; names of the RNAs are library labels; protein concentration not given here; high values mean tight binding
Over roughly 5,800 sequences, “enrichment r” has its median near 0.54; the highest 2% begin near 16. For the sample, the highest values were picked, then their nearest neighbours and some sequences at random.
Could you please report measured binding signal for the items listed next?
Give the number; enrichment R is assumed, so skip it.

Entry chr16:58599380:58599482:-|5pUTR|ENSG00000125107|unk|total|mutant (ssRNA) RNA: GGGAGUUCUACAGUCCGACGAUCCAGAACAGAGUAAGACCCCUGGUAAAGAAGAACUGAAGAUAUUAUACAGAUACCAGAUACCGCCUAAUUACAAAGAAAGCAUUAACCUGCCUCUGAGGUGACUAAAGGGGAAUAAUGGUGCAACAGAGGAUUGAGCAUCA has what binding signal?
0.791

Record: chr12:64147824:64147925:+|3pUTR|ENSG00000196935|unk|FALSE|unique (ssRNA) RNA: GGGAGUUCUACAGUCCGACGAUCCAUCUCUGUGGUGUCUUUGUUCCUUUCCUUUCAUUCAUCACUACUUUCUCCUUGACAGCUAGCUUGCAUUAAAUAAUGUGAAACUUUUACCUUUAAAAUAUUUUUUUAUCUCACUUUCAUCAACAGAGGAUUGAGCAUCA
7.22

And chr8:52110837:52113338:-|three_prime_utr|ENSG00000147488|control|control|control (ssRNA) RNA: GGGAGUUCUACAGUCCGACGAUCCCCCGGAAUGCAAAGCUCUACUGGAAAGUAUCAAACAGGCAGUGAAGGGUAUCCAUGUGUAGGAUCACAGCGCUGCCGGGCAACAGAAGUUACCAACAGCAGUAAACUCCAGAUGGAUCUCAACAGAGGAUUGAGCAUCA ?
0.319
